studySystem: recombinant human Mcl-1 (residues 171-327) / Bim interaction (Homo sapiens (Human))
Sequence (Q07820 171-327): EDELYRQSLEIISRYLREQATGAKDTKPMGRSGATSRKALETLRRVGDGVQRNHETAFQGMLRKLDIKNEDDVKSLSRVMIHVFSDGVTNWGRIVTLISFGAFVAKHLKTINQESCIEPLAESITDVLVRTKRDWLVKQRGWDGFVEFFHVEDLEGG
methodDescription: biochemical
Assay type: binding
measurementParameters: 0.1 nM Mcl-1(171-327), 0.05 nM biotin-Bim (51-76); read-out: Mcl-1 HTRF IC50
Assign pIC50 to each entry below.
// pIC50: -log10(molar conc.)

Task: Please report the recorded pIC50 for `CO[C@@]1(CN2CCN(c3ccc(B(O)O)c(C(C)=O)c3)CC2)/C=C/C[C@H](C)[C@@H](C)S(=O)(=O)NC(=O)c2ccc3c(c2)N(C[C@@H]2CC[C@H]21)C[C@@]1(CCCc2cc(Cl)ccc21)CO3` .
Output: 9.68

Task: Please report the recorded pIC50 for `CO[C@@]1(CN2CCN3C[C@H](C)OC[C@@H]3C2)/C=C/C[C@H](C)[C@@H](C)S(=O)(=O)NC(=O)c2ccc3c(c2)N(C[C@@H]2CC[C@H]21)C[C@@]1(CCCc2cc(Cl)ccc21)CO3` .
Output: 9.91

Task: Please report the recorded pIC50 for CCO[C@]1(CN2CCN3CCS(=O)(=O)C[C@@H]3C2)/C=C/C[C@H](C)[C@@H](C)S(=O)(=O)NC(=O)c2ccc3c(c2)N(C[C@@H]2CC[C@H]21)C[C@@]1(CCCc2cc(Cl)ccc21)CO3 [Example 121] .
Output: 10.08

Task: Please report the recorded pIC50 for `COCCN(CCOC)C1CN(C[C@]2(OC)/C=C/C[C@H](C)[C@@H](C)S(=O)(=O)NC(=O)c3ccc4c(c3)N(C[C@@H]3CC[C@H]32)C[C@@]2(CCCc3cc(Cl)ccc32)CO4)C1` .
Output: 9.94

Task: Please report the recorded pIC50 for `CCO[C@]1(CN2CCN3CCCC[C@@H]3C2)/C=C/CC[C@@H](CC)S(=O)(=O)NC(=O)c2ccc3c(c2)N(C[C@@H]2CC[C@H]21)C[C@@]1(CCCc2cc(Cl)ccc21)CO3` .
Output: 9.77

Task: Please report the recorded pIC50 for `CCN1CCN(C[C@]2(OC)/C=C/C[C@H](C)[C@@H](C)S(=O)(=O)NC(=O)c3ccc4c(c3)N(C[C@@H]3CC[C@H]32)C[C@@]2(CCCc3cc(Cl)ccc32)CO4)CC1` .
Output: 9.89

Task: Please report the recorded pIC50 for `CO[C@]1(CN2CC3(C2)CN(C(C)C)C3)/C=C/C[C@H](C)[C@@H](C)S(=O)(=O)NC(=O)c2ccc3c(c2)N(C[C@@H]2CC[C@H]21)C[C@@]1(CCCc2cc(Cl)ccc21)CO3` .
Output: 9.28

Task: Please report the recorded pIC50 for `CO[C@]1(CN2CCN3C(=O)[C@H](C)OC[C@@H]3C2)/C=C/C[C@H](C)[C@@H](C)S(=O)(=O)NC(=O)c2ccc3c(c2)N(C[C@@H]2CC[C@H]21)C[C@@]1(CCCc2cc(Cl)ccc21)CO3` .
Output: 9.80

Task: Please report the recorded pIC50 for C[C@@H]1[C@@H](C)CCCC2(CN(S(C)(=O)=O)CCO2)[C@@H]2CC[C@H]2CN2C[C@@]3(CCCc4cc(Cl)ccc43)COc3ccc(cc32)C(=O)NS1(=O)=O (stereo partly shown) .
Output: 9.05

Task: Please report the recorded pIC50 for `CO[C@]1(CN2CCN(C3COCCOC3)CC2)/C=C/C[C@H](C)[C@@H](C)S(=O)(=O)NC(=O)c2ccc3c(c2)N(C[C@@H]2CC[C@H]21)C[C@@]1(CCCc2cc(Cl)ccc21)CO3` .
Output: 10.05

Task: Please report the recorded pIC50 for CO[C@]1(CN2CC[C@H]3CCCC[C@@H]3C2)/C=C/C[C@H](C)[C@@H](C)S(=O)(=O)NC(=O)c2ccc3c(c2)N(C[C@@H]2CC[C@H]21)C[C@@]1(CCCc2cc(Cl)ccc21)CO3 [Example 86] .
Output: 8.41

Task: Please report the recorded pIC50 for `CO[C@@]1(CN2CCN(c3cccnc3)CC2)/C=C/C[C@H](C)[C@@H](C)S(=O)(=O)NC(=O)c2ccc3c(c2)N(C[C@@H]2CC[C@H]21)C[C@@]1(CCCc2cc(Cl)ccc21)CO3` .
Output: 9.09

Task: Please report the recorded pIC50 for `COC[C@@H]1[C@@H](C)C/C=C/[C@](CN2CCN3CCOC[C@@H]3C2)(OC)[C@@H]2CC[C@H]2CN2C[C@@]3(CCCc4cc(Cl)ccc43)COc3ccc(cc32)C(=O)NS1(=O)=O` .
Output: 9.86

Task: Please report the recorded pIC50 for `CO[C@@]1(CN2CCN3CCOC[C@H]3C2)/C=C/C[C@H](C)[C@@H](C)S(=O)(=O)NC(=O)c2ccc3c(c2)N(C[C@@H]2CC[C@H]21)C[C@@]1(CCCc2cc(Cl)ccc21)CO3` .
Output: 9.59

Task: Please report the recorded pIC50 for `C[C@@H]1[C@@H](C)C/C=C/[C@]2(CN(CC3CCOCC3)CCO2)[C@@H]2CC[C@H]2CN2C[C@@]3(CCCc4cc(Cl)ccc43)COc3ccc(cc32)C(=O)NS1(=O)=O` .
Output: 8.09

Task: Please report the recorded pIC50 for `CO[C@@]1(CN2CCC3(CCOC3)CC2)/C=C/C[C@H](C)[C@@H](C)S(=O)(=O)NC(=O)c2ccc3c(c2)N(C[C@@H]2CC[C@H]21)C[C@@]1(CCCc2cc(Cl)ccc21)CO3` .
Output: 9.37

Task: Please report the recorded pIC50 for `COCCN1CCN(C[C@@]2(OC)/C=C/C[C@H](C)[C@@H](C)S(=O)(=O)NC(=O)c3ccc4c(c3)N(C[C@@H]3CC[C@H]32)C[C@@]2(CCCc3cc(Cl)ccc32)CO4)CC1` .
Output: 10.12

Task: Please report the recorded pIC50 for `CCO[C@]1(CN2CCN3CCOC[C@@H]3C2)CCC[C@H](C)[C@@H](CCOC)S(=O)(=O)NC(=O)c2ccc3c(c2)N(C[C@@H]2CC[C@H]21)C[C@@]1(CCCc2cc(Cl)ccc21)CO3` .
Output: 9.79

Task: Please report the recorded pIC50 for C[C@@H]1[C@@H](C)CCCC2(CN3CCOC[C@H]3CO2)[C@@H]2CC[C@H]2CN2C[C@@]3(CCCc4cc(Cl)ccc43)COc3ccc(cc32)C(=O)NS1(=O)=O (stereo partly shown) .
Output: 8.96

====

studySystem: recombinant human Mcl-1 (residues 171-327) / Bim interaction (Homo sapiens (Human))
methodDescription: biochemical
Format: binding
measurementParameters: TR-FRET, Mcl-1(171-327) / biotin-Bim (51-76); read-out: Mcl-1 HTRF IC50
Lab note: compare IC50 with 0.2 nM, writing fulfilled if less and not fulfilled if equal or more.

Task: Dear colleague, could you confirm whether IC50 of CC[C@@]1(O)CCC[C@H](C)[C@@H](C)S(=O)(=O)NC(=O)c2ccc3c(c2)N(C[C@@H]2CC[C@H]21)C[C@@]1(CCCc2cc(Cl)ccc21)CO3 [Example 100079] falls below 0.2 nM? Thanks.
Output: not fulfilled

Task: Dear colleague, could you confirm whether IC50 of CO[C@]1(CC=O)/C=C/C[C@H](C)[C@@H](C)S(=O)(=O)NC(=O)c2ccc3c(c2)N(C[C@@H]2CC[C@H]21)C[C@@]1(CCCc2cc(Cl)ccc21)CO3 [Example 100322] falls below 0.2 nM? Thanks.
Output: not fulfilled

Task: Dear colleague, could you confirm whether IC50 of C[C@@H]1[C@@H](C)CCC[C@](O)(CC(=O)O)[C@@H]2CC[C@H]2CN2C[C@@]3(CCCc4cc(Cl)ccc43)COc3ccc(cc32)C(=O)NS1(=O)=O [Example 100097] falls below 0.2 nM? Thanks.
Output: fulfilled

Task: Dear colleague, could you confirm whether IC50 of CO[C@@]1(CC(=O)N2CCN(C)C[C@H]2C)/C=C/C[C@H](C)[C@@H](C)S(=O)(=O)NC(=O)c2ccc3c(c2)N(C[C@@H]2CC[C@H]21)C[C@@]1(CCCc2cc(Cl)ccc21)CO3 (single isomer, unassigned) [Example 100480] falls below 0.2 nM? Thanks.
Output: fulfilled

Task: Dear colleague, could you confirm whether IC50 of CO[C@@]1(CC=C(C)C)/C=C/C[C@H](C)[C@@H](C)S(=O)(=O)NC(=O)c2ccc3c(c2)N(C[C@@H]2CC[C@H]21)C[C@@]1(CCCc2cc(Cl)ccc21)CO3 [Example 100447] falls below 0.2 nM? Thanks.
Output: fulfilled

Task: Dear colleague, could you confirm whether IC50 of C[C@@H]1[C@@H](C)CCC[C@@](O)(Cc2ncccn2)[C@@H]2CC[C@H]2CN2C[C@@]3(CCCc4cc(Cl)ccc43)COc3ccc(cc32)C(=O)NS1(=O)=O [Example 100146] falls below 0.2 nM? Thanks.
Output: not fulfilled

Task: Dear colleague, could you confirm whether IC50 of CO[C@]1(CCN2CCN(C)C(=O)C2)/C=C/C[C@H](C)[C@@H](C)S(=O)(=O)NC(=O)c2ccc3c(c2)N(C[C@@H]2CC[C@H]21)C[C@@]1(CCCc2cc(Cl)ccc21)CO3 [Example 100415] falls below 0.2 nM? Thanks.
Output: not fulfilled

Task: Dear colleague, could you confirm whether IC50 of CO[C@@]1(C[C@@H](O)C2CC2)/C=C/C[C@H](C)[C@@H](C)S(=O)(=O)NC(=O)c2ccc3c(c2)N(C[C@@H]2CC[C@H]21)C[C@@]1(CCCc2cc(Cl)ccc21)CO3 (single isomer, unassigned) [Example 100461] falls below 0.2 nM? Thanks.
Output: fulfilled

Task: Dear colleague, could you confirm whether IC50 of CO[C@@]1(C#CCN2CCN3CCOC[C@@H]3C2)/C=C/C[C@H](C)[C@@H](C)S(=O)(=O)NC(=O)c2ccc3c(c2)N(C[C@@H]2CC[C@H]21)C[C@@]1(CCCc2cc(Cl)ccc21)CO3 [Example 100518] falls below 0.2 nM? Thanks.
Output: not fulfilled

Task: Dear colleague, could you confirm whether IC50 of C[C@@H]1[C@@H](C)CCC[C@@](O)(CC(=O)N2CCCC2)[C@@H]2CC[C@H]2CN2C[C@@]3(CCCc4cc(Cl)ccc43)COc3ccc(cc32)C(=O)NS1(=O)=O [Example 100108] falls below 0.2 nM? Thanks.
Output: not fulfilled

Task: Dear colleague, could you confirm whether IC50 of COCCOC[C@@]1(O)CCC[C@H](C)[C@@H](C)S(=O)(=O)NC(=O)c2ccc3c(c2)N(C[C@@H]2CC[C@H]21)C[C@@]1(CCCc2cc(Cl)ccc21)CO3 [Example 100193] falls below 0.2 nM? Thanks.
Output: not fulfilled

Task: Dear colleague, could you confirm whether IC50 of C[C@@H]1[C@@H](C)C/C=C/[C@@](O)(C2SCCCS2)[C@@H]2CC[C@H]2CN2C[C@@]3(CCCc4cc(Cl)ccc43)COc3ccc(cc32)C(=O)NS1(=O)=O [Example 100260] falls below 0.2 nM? Thanks.
Output: not fulfilled

Task: Dear colleague, could you confirm whether IC50 of C[C@@H]1[C@@H](C)C/C=C/[C@@](O)(Cc2ccccn2)[C@@H]2CC[C@H]2CN2C[C@@]3(CCCc4cc(Cl)ccc43)COc3ccc(cc32)C(=O)NS1(=O)=O [Example 100241] falls below 0.2 nM? Thanks.
Output: not fulfilled

Task: Dear colleague, could you confirm whether IC50 of C[C@H](C(=O)O)[C@@]1(O)/C=C/C[C@H](C)[C@@H](C)S(=O)(=O)NC(=O)c2ccc3c(c2)N(C[C@@H]2CC[C@H]21)C[C@@]1(CCCc2cc(Cl)ccc21)CO3 (single isomer, unassigned) [Example 100120] falls below 0.2 nM? Thanks.
Output: fulfilled

Task: Dear colleague, could you confirm whether IC50 of CO[C@]1(CCN2CC(C)(N(C)C)C2)/C=C/C[C@H](C)[C@@H](C)S(=O)(=O)NC(=O)c2ccc3c(c2)N(C[C@@H]2CC[C@H]21)C[C@@]1(CCCc2cc(Cl)ccc21)CO3 [Example 100453] falls below 0.2 nM? Thanks.
Output: not fulfilled

Task: Dear colleague, could you confirm whether IC50 of C=CC[C@@]1(O)/C=C/C[C@H](C)[C@@H](C)S(=O)(=O)NC(=O)c2ccc3c(c2)N(C[C@@H]2CC[C@H]21)C[C@@]1(CCCc2cc(Cl)ccc21)CO3 (single isomer, unassigned) [Example 100131] falls below 0.2 nM? Thanks.
Output: fulfilled

Task: Dear colleague, could you confirm whether IC50 of C[C@@H]1[C@@H](C)C/C=C/[C@](O)(c2ccc(F)cn2)[C@@H]2CC[C@H]2CN2C[C@@]3(CCCc4cc(Cl)ccc43)COc3ccc(cc32)C(=O)NS1(=O)=O [Example 100403] falls below 0.2 nM? Thanks.
Output: not fulfilled

Task: Dear colleague, could you confirm whether IC50 of C/C=C/C[C@]1(OC)/C=C/C[C@H](C)[C@@H](C)S(=O)(=O)NC(=O)c2ccc3c(c2)N(C[C@@H]2CC[C@H]21)C[C@@]1(CCCc2cc(Cl)ccc21)CO3 [Example 100438] falls below 0.2 nM? Thanks.
Output: fulfilled

Task: Dear colleague, could you confirm whether IC50 of C[C@@H]1[C@@H](C)C/C=C/[C@@](C)(O)[C@@H]2CC[C@H]2CN2C[C@@]3(CCCc4cc(Cl)ccc43)COc3ccc(nc32)C(=O)NS1(=O)=O (single isomer, unassigned) [Example 100601] falls below 0.2 nM? Thanks.
Output: fulfilled
